test: Cytotoxicity against 293T kidney epithelial cells (Alamar Blue); conditions: human
MEASURED METRIC: IC50 at 24 h (µM)
Answers are plain numbers, in µM.

Task: Indicate its recorded IC50 at 24 h; the compound in question is CC(C)[C@@H]1NC(=O)[C@H](C)OC(=O)[C@@H](C(C)C)NC(=O)[C@@H](C(C)C)OC(=O)[C@H](C(C)C)NC(=O)[C@H](C)OC(=O)[C@@H](C(C)C)NC(=O)[C@@H](C(C)C)OC(=O)[C@H](C(C)C)NC(=O)[C@H](C)OC(=O)[C@@H](C(C)C)NC(=O)[C@@H](C(C)C)OC1=O
Output: 11.2

====

assay: Cytotoxicity against J774.1 macrophages (Alamar Blue); details: mouse
MEASURED METRIC: IC50 at 24 h

Task: Indicate its recorded IC50 at 24 h; the molecule in question is CC(C)[C@@H]1NC(=O)[C@H](C)OC(=O)[C@@H](C(C)C)NC(=O)[C@@H](C(C)C)OC(=O)[C@H](C(C)C)NC(=O)[C@H](C)OC(=O)[C@@H](C(C)C)NC(=O)[C@@H](C(C)C)OC(=O)[C@H](C(C)C)NC(=O)[C@H](C)OC(=O)[C@@H](C(C)C)NC(=O)[C@@H](C(C)C)OC1=O
Output: < 100 nM

====

test: in vitro; conditions: human
MEASURED METRIC: pIC50
Give bare numbers, as −log10 of the molar value.

Task: Indicate its recorded pIC50; the molecule in question is CN[C@@H]1C[C@H]2O[C@@](C)([C@@H]1OC)n1c3ccccc3c3c4c(c5c6ccccc6n2c5c31)C(=O)NC4
Output: 5.89

====

system: Trypanosoma brucei brucei laboratory strain TC 221; test: Trypanosoma brucei brucei trypomastigote growth inhibition (Alamar Blue); format: cell-based; conditions: reading at 72 h, read-out: IC50 Trypanosoma brucei brucei (72 h)
MEASURED METRIC: IC50 (µM)
Numbers only, in µM.

Task: Indicate its recorded IC50; the compound in question is CN[C@@H]1C[C@H]2O[C@@](C)([C@@H]1OC)n1c3ccccc3c3c4c(c5c6ccccc6n2c5c31)C(=O)NC4 [staurosporine]
Output: 0.035

Recorded values, source paper PMC2852844.
